biological target: adenosine 1 receptor (Homo sapiens, UniProt P30542); assay: Agonist activity against adenosine 1 receptor (CHO cells, forskolin-enhanced cAMP/SPAP reporter); assay type: cell-based; conditions: CHO cells transfected with human receptor; forskolin-enhanced cAMP via SPAP; mean of all the versions tested
Sequence (P30542 whole entry): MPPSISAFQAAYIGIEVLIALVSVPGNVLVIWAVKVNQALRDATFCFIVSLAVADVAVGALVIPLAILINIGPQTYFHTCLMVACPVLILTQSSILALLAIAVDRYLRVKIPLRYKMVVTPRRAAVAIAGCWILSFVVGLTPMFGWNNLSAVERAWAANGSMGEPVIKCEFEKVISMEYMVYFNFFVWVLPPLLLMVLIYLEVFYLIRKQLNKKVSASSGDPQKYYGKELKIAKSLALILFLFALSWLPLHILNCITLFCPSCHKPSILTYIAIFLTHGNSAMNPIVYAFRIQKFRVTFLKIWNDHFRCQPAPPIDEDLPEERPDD
measured_endpoint: A1 EC50 as a ratio of that of NECA
Lab note: jot the number down without any unit.

Q) Please report the recorded A1 EC50 as a ratio of that of NECA for Cn1nnc(C2OC(n3cnc4c(NC5CCCC5)nc(NC(CO)Cc5ccccc5)nc43)C(O)C2O)n1 (stereo not drawn) .
A) 1.9

Q) Please report the recorded A1 EC50 as a ratio of that of NECA for Cn1nnc(C2OC(n3cnc4c(NCC(c5ccccc5)c5ccccc5)nc(NCCN5CCOCC5)nc43)C(O)C2O)n1.O=CO.O=CO (stereo not drawn) .
A) 126.50

Q) Please report the recorded A1 EC50 as a ratio of that of NECA for `CC(=O)O.CCn1nnc([C@H]2O[C@@H](n3cnc4c(NCCC(C)(C)C)nc(NCCc5cn(C)cn5)nc43)[C@H](O)[C@@H]2O)n1` .
A) 377

Q) Please report the recorded A1 EC50 as a ratio of that of NECA for `CC(C)n1nnc([C@H]2O[C@@H](n3cnc4c(NC5CCCC5)nc(NCCc5cn(C)cn5)nc43)[C@H](O)[C@@H]2O)n1.O=CO` .
A) 28.9

Q) Please report the recorded A1 EC50 as a ratio of that of NECA for `CCn1nnc([C@H]2O[C@@H](n3cnc4c(N)nc(NCCc5cn(C)cn5)nc43)[C@H](O)[C@@H]2O)n1.O=CO` .
A) 267.60

Q) Please report the recorded A1 EC50 as a ratio of that of NECA for `CCn1nnc([C@H]2O[C@@H](n3cnc4c(NCC(c5ccccc5)c5ccccc5)nc(NCCO)nc43)[C@H](O)[C@@H]2O)n1.O=C(O)C(F)(F)F` .
A) 27.40

Q) Please report the recorded A1 EC50 as a ratio of that of NECA for CCn1nnc(C2OC(n3cnc4c(NC5CCCC5)nc(NC(CO)Cc5ccccc5)nc43)C(O)C2O)n1 (stereo not drawn) .
A) 14.78
